src = ChEMBL document CHEMBL1201862

Provide the reported GI50 of each item.
System: MDA-N
Assay text: NCI tumour cell line growth inhibition, 48 h
The source made the active and inactive calls. Cut-off read from the data, not from the text of the source: active = GI50 up to about 1.1 µM and inactive = higher.

CC1(C)C2CCC1(C)[C@H](n1c(=O)n([C@@H]3CC4CCC3(C)C4(C)C)c(=O)n([C@@H]3CC4CCC3(C)C4(C)C)c1=O)C2 = 68.4 µM (inactive)

Can you give me GI50 for all of these, one by one?
1. COC(=O)/C=C/c1ccc2c(c1)[C@H](C(=O)OC)[C@@H](c1ccc(O)cc1)O2
2. [N-]=[N+]=CC(=O)OC1CCOCC1
3. Cc1ccc(Cl)c2c(=O)c3ccc(N)cc3sc12

1: 5.06 µM (inactive); 2: > 100 µM (inactive); 3: 30.1 µM (inactive)

So what does the record say about GI50 for O=C1C(Cl)=C(N(C(=O)c2ccccc2)C(=O)c2ccccc2)C(=O)c2ccccc21 ?
13.1 µM (inactive)
